Exercise: for every item that follows, state its recorded mortality at 200 ppm.
tested on: Myzus persicae (Green Peach Aphid); test: Example B6: Myzus persicae feeding/contact activity, sunflower leaf discs; assay type: in vivo; conditions: foliar, 144 h, application rate of 200 ppm, aphid population of mixed ages, 6 days after infestation

For the compound CC(=O)Nc1nc(C(C)N(C)C(=O)c2cc(C(F)(F)F)cc(C(F)(F)F)c2)n(-c2ncccn2)n1 (stereo not drawn) , give its reported mortality at 200 ppm. ≥ 80%

For the compound CNC(=O)c1nc(C(C)N(C)C(=O)c2cc(C(F)(F)F)cc(C(F)(F)F)c2)n(-c2ncccn2)n1 (stereo not drawn) , give its reported mortality at 200 ppm. ≥ 80%

For the compound CNc1nc(C(C)N(C)C(=O)c2cc(C(F)(F)F)cc(C(F)(F)F)c2)n(-c2ncccn2)n1 (stereo not drawn) , give its reported mortality at 200 ppm. ≥ 80%

---

System: Frankliniella occidentalis (Western Flower Thrips)
Experiment: Example B3: Frankliniella occidentalis feeding/contact activity, sunflower leaf discs
Type: in vivo
Conditions: foliar, 168 h, application rate of 200 ppm, population of mixed ages, 7 days after infestation
Method: Example B3: Frankliniella occidentalis (Western Flower Thrips):Feeding/Contact Activity Sunflower leaf discs were placed on agar in 24-well microtiter plates and sprayed with aqueous test solutions prepared from […] stock solutions. After drying the leaf discs were infested with a Frankliniella population of mixed ages. The samples were assessed for mortality 7 days after infestation.
observationType: mortality at 200 ppm

Please tell me the measured mortality at 200 ppm for CC(NC(=O)c1cc(C(F)(F)F)cc(C(F)(F)F)c1)c1nc(-c2ncno2)nn1-c1ncccn1 (centres unmarked) [Compound P1] ; system: Frankliniella occidentalis (Western Flower Thrips). ≥ 80%

Please tell me the measured mortality at 200 ppm for CNC(=O)c1nc(C(C)N(C)C(=O)c2cc(C(F)(F)F)cc(C(F)(F)F)c2)n(-c2ncccn2)n1 (centres unmarked) ; system: Frankliniella occidentalis (Western Flower Thrips). ≥ 80%

Please tell me the measured mortality at 200 ppm for CC(NC(=O)c1cc(C(F)(F)F)cc(C(F)(F)F)c1)c1nc(Br)nn1-c1ncccn1 (centres unmarked) ; system: Frankliniella occidentalis (Western Flower Thrips). ≥ 80%

Please tell me the measured mortality at 200 ppm for CC(NC(=O)c1cc(C(F)(F)F)cc(C(F)(F)F)c1)c1nc(OC(F)F)nn1-c1ncccn1 (centres unmarked) ; system: Frankliniella occidentalis (Western Flower Thrips). ≥ 80%

Please tell me the measured mortality at 200 ppm for CC(c1nc(N(C)C)nn1-c1ncccn1)N(C)C(=O)c1cc(C(F)(F)F)cc(C(F)(F)F)c1 (centres unmarked) ; system: Frankliniella occidentalis (Western Flower Thrips). ≥ 80%

---

tested on: Myzus persicae (Green Peach Aphid); experiment: Example B8: Myzus persicae intrinsic activity, sucrose solution under Parafilm, 24-well; type: in vivo; details: 120 h, test rate of 12 ppm, 5 days after infestation
Exercise: for every item that follows, state its recorded mortality at 12 ppm.

For the compound CC(NC(=O)c1cc(C(F)(F)F)cc(C(F)(F)F)c1)c1nc(C=O)nn1-c1ncccn1 (stereo not drawn) , give its reported mortality at 12 ppm. ≥ 80%

For the compound CC(c1nc(Br)nn1-c1ncccn1)N(C)C(=O)c1cc(C(F)(F)F)cc(C(F)(F)F)c1 (stereo not drawn) , give its reported mortality at 12 ppm. ≥ 80%

For the compound CC(c1nc(C(=O)N(C)C)nn1-c1ncccn1)N(C)C(=O)c1cc(C(F)(F)F)cc(C(F)(F)F)c1 (stereo not drawn) , give its reported mortality at 12 ppm. ≥ 80%
